Consider the following compounds; for each one, report its TGI.
System: MDA-MB-468 breast
protocol: NCI tumour cell line growth inhibition, 48 h
Give bare numbers, in µM.

Sample records with TGI:
• O=C1/C(=C\c2ccc(F)cc2)CN(C(=O)c2ccccc2F)C/C1=C\c1ccc(F)cc1 = 3.4
• O=C(/C=C/c1ccccc1)c1cccc2ccccc12 = 5.64
• CCN1CCN(c2nc(C)cc(NCc3cc(Nc4ccnc5cc(Cl)ccc45)ccc3F)n2)CC1 = 3.51
• COc1ccc(NC(=O)CSc2nnc(-c3ccc(-c4nc5ccc(Cl)cc5[nH]4)cc3)o2)cc1 = 38.4
• O=C(Oc1ccccc1)N(c1ccccc1)c1ccccc1 = 87.7
• Cc1ccc(N)cc1[As]=[As]c1cc(N)ccc1C (configuration not stated) = 0.944

Dear colleague, could you send me TGI for each of the items below? Thanks.
1. NCCCNc1nc2ccccc2c2c(=O)c3cc(F)ccc3sc12
2. C=CCn1c2ccccc2c2c3c(c4c5ccccc5n(CC=C)c4c21)C(=O)N(O)C3=O
3. CC12OC(CC(O)C1O)n1c3ccccc3c3c4c(c5c6ccccc6n2c5c31)C(=O)N(CCN1CCOCC1)C4=O (configuration not stated)
4. O=C(Nc1ccncc1)C(=O)c1cn(S(=O)(=O)c2cccc(Cl)c2)c2ccccc12

[2.59, 41.9, 3.19, 45.3]

###

Tested on: MDA-MB-468 breast
protocol: NCI tumour cell line growth inhibition, 48 h; in the data active = GI50 below about 0.43 µM; inactive = the rest
Bench note: report the call from Yes for active, No for inactive

• CCOc1cc(-c2nncn2C)ccc1Nc1ncc2cc(C)nc(NCC(C)(C)C)c2n1 = No
• Cc1nc2sc(C(=O)Nc3cccc(Br)c3C)c(N)c2cc1C(O)c1ccccc1 (centres undefined) = Yes
• O=C1/C(=C\c2ccc(F)cc2)CN(C(=O)c2ccccc2F)C/C1=C\c1ccc(F)cc1 = No
• COC(=O)[C@]12CC[C@@H](C)[C@H](C)[C@@H]1C1=CC[C@@H]3[C@@]4(C)C(C=O)=C[C@@](C)(CO)[C@@H]4[C@H](O)C[C@@]3(C)[C@]1(C)CC2 = No
• CC12OC(CC(O)C1O)n1c3ccccc3c3c4c(c5c6ccccc6n2c5c31)C(=O)N(CCN1CCOCC1)C4=O (centres undefined) = No
• C=C1c2nc3ccccc3n2C=C(c2cccc(Cl)c2)N1Cc1ccc(OC)cc1 = No

Hi, do you know how C#C[C@@]1(O)[C@@H](CO)O[C@@H](n2cc(Br)c3c(Cl)ccnc32)[C@@H]1O came out in this test?
No

Hi, do you know how CN1CCN(CCCNC(=O)c2c3c(n4ccccc24)C(=O)c2ncccc2C3=O)CC1 came out in this test?
No

Hi, do you know how O=C(Oc1ccccc1)N(c1ccccc1)c1ccccc1 came out in this test?
No
